system-name: Tyrosine-protein kinase Fyn (Homo sapiens, UniProt P06241)
Sequence (P06241 whole entry): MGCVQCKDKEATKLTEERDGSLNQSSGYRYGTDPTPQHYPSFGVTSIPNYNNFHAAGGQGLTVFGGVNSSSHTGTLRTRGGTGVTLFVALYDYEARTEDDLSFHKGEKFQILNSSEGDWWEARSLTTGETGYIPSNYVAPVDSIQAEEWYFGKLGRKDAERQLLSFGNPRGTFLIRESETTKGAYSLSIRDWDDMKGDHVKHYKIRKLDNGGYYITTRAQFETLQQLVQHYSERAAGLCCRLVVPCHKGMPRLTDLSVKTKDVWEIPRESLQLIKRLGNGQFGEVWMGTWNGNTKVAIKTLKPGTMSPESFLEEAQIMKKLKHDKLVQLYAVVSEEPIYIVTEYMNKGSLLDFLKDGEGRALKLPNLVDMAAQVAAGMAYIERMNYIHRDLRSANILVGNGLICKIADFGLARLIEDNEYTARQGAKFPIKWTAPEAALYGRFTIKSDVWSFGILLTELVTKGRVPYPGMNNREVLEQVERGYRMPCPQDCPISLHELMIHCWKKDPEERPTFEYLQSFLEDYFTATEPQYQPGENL
protocol-details: Selectivity interaction (Kinase panel (HTRF assay)) EUB0000221b FYN
measurement-label: IC50

Looking for the measured IC50 of C[C@H]1CC(=O)Nc2cc(C(=O)NCCC3CC3)ccc2N1C(=O)N1CC2CC2C1 (stereo partly specified) , can you help? 5.71 µM

---

system-name: Histone-lysine N-methyltransferase SETD2 (Homo sapiens, UniProt Q9BYW2)
Sequence (Q9BYW2 whole entry): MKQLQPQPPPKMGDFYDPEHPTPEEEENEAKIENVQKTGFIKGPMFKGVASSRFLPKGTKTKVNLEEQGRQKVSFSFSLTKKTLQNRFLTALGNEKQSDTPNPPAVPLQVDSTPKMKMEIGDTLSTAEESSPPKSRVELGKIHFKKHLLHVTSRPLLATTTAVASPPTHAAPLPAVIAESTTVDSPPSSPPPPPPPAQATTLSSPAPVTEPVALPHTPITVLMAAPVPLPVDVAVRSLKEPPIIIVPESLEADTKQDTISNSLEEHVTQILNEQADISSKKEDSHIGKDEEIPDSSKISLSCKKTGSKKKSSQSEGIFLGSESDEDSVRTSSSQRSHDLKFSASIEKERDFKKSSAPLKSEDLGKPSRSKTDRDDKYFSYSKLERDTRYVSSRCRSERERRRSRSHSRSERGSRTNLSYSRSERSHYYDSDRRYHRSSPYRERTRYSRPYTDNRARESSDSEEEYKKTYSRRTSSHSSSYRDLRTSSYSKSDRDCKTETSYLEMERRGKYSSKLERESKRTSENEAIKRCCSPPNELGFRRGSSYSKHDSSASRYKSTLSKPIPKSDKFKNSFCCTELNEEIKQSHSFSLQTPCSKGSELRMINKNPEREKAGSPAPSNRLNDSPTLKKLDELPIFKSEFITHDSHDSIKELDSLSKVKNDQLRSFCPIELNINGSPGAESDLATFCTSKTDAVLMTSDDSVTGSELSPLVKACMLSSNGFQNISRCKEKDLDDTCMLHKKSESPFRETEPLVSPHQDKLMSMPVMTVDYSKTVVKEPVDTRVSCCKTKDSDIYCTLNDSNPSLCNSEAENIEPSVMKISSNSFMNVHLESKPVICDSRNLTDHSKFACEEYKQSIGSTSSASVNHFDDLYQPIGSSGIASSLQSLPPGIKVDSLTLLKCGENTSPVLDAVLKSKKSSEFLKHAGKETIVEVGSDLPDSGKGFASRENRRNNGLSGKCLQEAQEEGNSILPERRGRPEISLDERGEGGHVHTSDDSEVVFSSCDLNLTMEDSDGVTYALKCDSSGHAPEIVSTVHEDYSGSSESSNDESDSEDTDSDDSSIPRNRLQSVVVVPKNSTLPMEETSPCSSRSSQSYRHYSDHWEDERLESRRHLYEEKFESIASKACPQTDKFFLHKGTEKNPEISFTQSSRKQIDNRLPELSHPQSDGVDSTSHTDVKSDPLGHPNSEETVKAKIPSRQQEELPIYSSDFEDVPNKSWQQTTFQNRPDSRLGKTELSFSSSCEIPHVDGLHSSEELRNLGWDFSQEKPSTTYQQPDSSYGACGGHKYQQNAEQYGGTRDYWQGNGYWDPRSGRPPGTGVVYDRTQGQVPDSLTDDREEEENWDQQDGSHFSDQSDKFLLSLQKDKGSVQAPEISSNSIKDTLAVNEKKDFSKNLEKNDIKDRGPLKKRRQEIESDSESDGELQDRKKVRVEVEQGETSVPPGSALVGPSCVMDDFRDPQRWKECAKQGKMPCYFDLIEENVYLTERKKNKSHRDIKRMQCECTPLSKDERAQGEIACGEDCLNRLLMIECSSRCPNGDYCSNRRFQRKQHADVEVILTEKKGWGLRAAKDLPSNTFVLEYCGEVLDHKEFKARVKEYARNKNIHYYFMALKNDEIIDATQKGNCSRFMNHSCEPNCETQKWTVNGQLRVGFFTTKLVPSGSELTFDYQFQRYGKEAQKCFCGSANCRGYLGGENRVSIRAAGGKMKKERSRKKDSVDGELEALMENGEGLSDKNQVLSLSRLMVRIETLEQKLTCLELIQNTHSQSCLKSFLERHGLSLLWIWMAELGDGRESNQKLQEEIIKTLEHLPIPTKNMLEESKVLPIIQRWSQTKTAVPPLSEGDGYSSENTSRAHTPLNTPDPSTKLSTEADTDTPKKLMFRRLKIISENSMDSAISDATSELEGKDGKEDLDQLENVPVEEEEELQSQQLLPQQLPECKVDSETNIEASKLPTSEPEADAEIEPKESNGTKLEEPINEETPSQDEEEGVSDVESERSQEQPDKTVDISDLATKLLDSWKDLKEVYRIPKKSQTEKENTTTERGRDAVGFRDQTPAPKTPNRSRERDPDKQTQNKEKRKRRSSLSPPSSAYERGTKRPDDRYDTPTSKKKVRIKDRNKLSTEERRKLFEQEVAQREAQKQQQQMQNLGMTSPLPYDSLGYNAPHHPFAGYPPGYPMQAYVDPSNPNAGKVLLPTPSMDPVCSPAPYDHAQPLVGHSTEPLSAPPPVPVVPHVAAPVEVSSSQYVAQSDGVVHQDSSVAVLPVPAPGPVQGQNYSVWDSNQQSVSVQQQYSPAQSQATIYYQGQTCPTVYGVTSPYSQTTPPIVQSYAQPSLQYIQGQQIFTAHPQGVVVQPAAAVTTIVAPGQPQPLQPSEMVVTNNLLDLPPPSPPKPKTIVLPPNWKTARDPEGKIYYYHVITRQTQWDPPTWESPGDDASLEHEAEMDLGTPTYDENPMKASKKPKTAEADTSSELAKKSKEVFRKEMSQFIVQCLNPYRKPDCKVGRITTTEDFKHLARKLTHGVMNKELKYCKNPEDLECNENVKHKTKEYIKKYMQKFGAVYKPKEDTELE
protocol-details: Selectivity interaction (Methyltransferase panel) EUB0000196bCl SETD2
measurement-label: EC50

Looking for the measured EC50 of `O=C([C@@H](Cc1cccc(C(F)(F)F)c1)NS(=O)(=O)c1cc(F)c2c(c1)CCNC2)N1CCCC1` , can you help? > 10 µM
